From: patent US8623879B2

# target_of_assay: human PDE9A2 (Homo sapiens)
# Construct: made in house; host or cells: Sf9 insect cells (infected); crude lysate used as enzyme source
# assay_summary: PDE9A2 enzymatic activity assay (scintillation proximity assay, SPA)
# Format: biochemical
# assay_context: read-out: % inhibition of PDE9A2 (at 10 micromolar concentration), 10 micromolar concentration; values above 100% adjusted to 100%
readout_name: inhibition at 10 µM (%)

molecule | recorded_value
CN1CCC(n2ncc3c(=O)[nH]c(CC4CCCC4)nc32)CC1 [Example 149] | 95
O=c1[nH]c(Cc2ccc(F)c(Cl)c2)nc2c1cnn2C1CCOCC1 [Example 137] | 99
COc1ccc(Cc2nc3c(cnn3C3CCOCC3)c(=O)[nH]2)cc1 [Example 11] | 98
CCOc1ccccc1Cc1nc2c(cnn2C2CCCOC2)c(=O)[nH]1 (racemic) [Example 93] | 97
COc1cccnc1Cc1nc2c(cnn2C2CCOCC2)c(=O)[nH]1 [Example 67] | 95
CC(C)(C)OC(=O)N1CCCC(n2ncc3c(=O)[nH]c(Cc4ccccc4F)nc32)C1 (racemic) [Example 23] | 99
O=C(c1ccccc1)N1CCCC(n2ncc3c(=O)[nH]c(CC4CCCC4)nc32)C1 (racemic) [Example 183] | 99
CC(C)(C)OC(=O)N1CCC(n2ncc3c(=O)[nH]c(Cc4ccccc4)nc32)C1 (racemic) [Example 15] | 92

* * *

# target_of_assay: human PDE9A2 (Homo sapiens)
# Construct: made in house; host or cells: Sf9 insect cells (infected); crude lysate used as enzyme source
# assay_summary: PDE9A2 enzymatic activity assay (scintillation proximity assay, SPA)
# Type: biochemical
# assay_context: read-out: % inhibition of PDE9A2 (at 10 micromolar concentration), 10 micromolar concentration; values above 100% adjusted to 100%
readout_name: inhibition at 10 µM (%)

compound | unit_spec | inhibition at 10 µM
O=c1[nH]c(CC2CC2)nc2c1cnn2C1CCCOC1 (racemic) [Example 99] | % | 96
CCC(Cc1nc2c(cnn2C2CCCN(C(C)=O)C2)c(=O)[nH]1)C(F)(F)F (mixture of isomers) [Example 173] | % | 86
CC(C)Cc1nc2c(cnn2C2CCOC2)c(=O)[nH]1 (racemic) [Example 74] | % | 95
O=c1[nH]c(Cc2ccccc2Cl)nc2c1cnn2C1CCOCC1 [Example 4] | % | 98
O=c1[nH]c(CC2CCC2)nc2c1cnn2C1CCOC1 (racemic) [Example 73] | % | 97
CC(C)(C)OC(=O)N1CCCC(n2ncc3c(=O)[nH]c(Cc4cccc(C(F)(F)F)c4)nc32)C1 (racemic) [Example 22] | % | 98
CC(C)CCc1nc2c(cnn2C2CCOCC2)c(=O)[nH]1 [Example 3] | % | 99
CC1CC(n2ncc3c(=O)[nH]c(Cc4ccccc4C#N)nc32)CCO1 (racemic) [Example 121] | % | 94

* * *

# target_of_assay: human PDE9A2 (Homo sapiens, UniProt O76083)
# Construct: made in house; host or cells: Sf9 insect cells (infected); crude lysate used as enzyme source
# Sequence (O76083 1-533 isoform O76083-2): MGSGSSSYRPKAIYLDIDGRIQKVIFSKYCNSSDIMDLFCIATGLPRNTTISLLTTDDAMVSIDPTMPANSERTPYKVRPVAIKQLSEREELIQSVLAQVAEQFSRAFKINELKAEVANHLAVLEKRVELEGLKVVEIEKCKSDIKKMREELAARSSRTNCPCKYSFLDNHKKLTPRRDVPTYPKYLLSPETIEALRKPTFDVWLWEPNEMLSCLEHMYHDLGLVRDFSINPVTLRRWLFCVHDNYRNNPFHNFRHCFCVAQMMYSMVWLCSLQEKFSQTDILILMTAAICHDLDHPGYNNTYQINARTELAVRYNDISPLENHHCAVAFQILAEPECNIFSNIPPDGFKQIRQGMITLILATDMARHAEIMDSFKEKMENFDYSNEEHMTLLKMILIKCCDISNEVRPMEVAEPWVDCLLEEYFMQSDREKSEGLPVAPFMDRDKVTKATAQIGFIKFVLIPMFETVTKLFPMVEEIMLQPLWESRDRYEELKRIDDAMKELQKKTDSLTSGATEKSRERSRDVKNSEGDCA
# assay_summary: PDE9A2 enzymatic activity assay (scintillation proximity assay, SPA)
# Type: biochemical
# assay_context: reported only as range 1-100 or 101-1200 nanomolar; specific value lies within range; read-out: IC50 within range [nanomolar (nM)]
readout_name: IC50

compound | IC50
CC(=O)N1CCCC(n2ncc3c(=O)[nH]c(CC4CCCC4)nc32)C1 (racemic) | 1 to 100 nM
O=c1[nH]c(CC2CCOC2)nc2c1cnn2C1CCOC1 (mixture of isomers) | 101 to 1200 nM
CC(=O)N1CCC(n2ncc3c(=O)[nH]c(Cc4ccccc4OC(F)(F)F)nc32)CC1 | 101 to 1200 nM
CN1CCC(n2ncc3c(=O)[nH]c(Cc4ccccc4OC(F)(F)F)nc32)CC1 | 101 to 1200 nM

Q) Data request, read-out IC50, for CN(C)C(=O)N1CCCC(n2ncc3c(=O)[nH]c(Cc4ccccc4OC(F)(F)F)nc32)C1 (racemic)
A) 101 to 1200 nM

Q) Data request, read-out IC50, for COC(=O)N1CCCC(n2ncc3c(=O)[nH]c(CC4CCCC4)nc32)C1 (racemic)
A) 1 to 100 nM

Q) Data request, read-out IC50, for O=c1[nH]c(Cc2ccccn2)nc2c1cnn2C1CCOC1 (single isomer, unassigned) [Example 132-7]
A) 1 to 100 nM

Q) Data request, read-out IC50, for O=C(c1ccccc1)N1CCC(n2ncc3c(=O)[nH]c(Cc4ccccc4OC(F)(F)F)nc32)C1 (racemic)
A) 101 to 1200 nM

Q) Data request, read-out IC50, for O=C(Oc1ccc(F)cc1)N1CCCC(n2ncc3c(=O)[nH]c(Cc4ccccc4)nc32)C1 (racemic)
A) 1 to 100 nM

Q) Data request, read-out IC50, for `O=c1[nH]c(Cc2cccnc2)nc2c1cnn2C1CCOCC1`
A) 101 to 1200 nM

Q) Data request, read-out IC50, for CC(C)Cc1nc2c(cnn2C2CCOC2)c(=O)[nH]1 (racemic) [Example 74]
A) 1 to 100 nM

Q) Data request, read-out IC50, for O=c1[nH]c(CC2CCCC2)nc2c1cnn2C1CCCOC1 (racemic)
A) 1 to 100 nM

Q) Data request, read-out IC50, for CC1CC(n2ncc3c(=O)[nH]c(Cc4ccccc4C(F)(F)F)nc32)CCO1 (racemic) [Example 113]
A) 101 to 1200 nM

Q) Data request, read-out IC50, for `Cc1nc(Cc2nc3c(cnn3C3CCOCC3)c(=O)[nH]2)c(C)s1`
A) 101 to 1200 nM

Q) Data request, read-out IC50, for CC(C)Cc1nc2c(cnn2C2CCCCO2)c(=O)[nH]1 (racemic)
A) 101 to 1200 nM

Q) Data request, read-out IC50, for CC1(C)CC(n2ncc3c(=O)[nH]c(CC4CCC4)nc32)CCO1 (racemic)
A) 101 to 1200 nM
